Measured MIC of compound in the absence of fluconazole (−) accompanies every entry in the list below.
System: YEM 30 C. albicans wt
PROCEDURE_TEXT: FEPI MIC with/without 1/8 fluconazole MIC at 24 hrs (Table 11)
Assay type: cell-based
MEASUREMENT_PARAMETERS: YEM 30; 24 hrs; 80% inhibition
ENDPOINT_NAME: MIC of compound in the absence of fluconazole (−)

>>> measured_value("CCCCC(C)C(=O)OC1C(C)C(C)OC2(CC3CC(C/C=C(\\C)CC(C)/C=C/C=C4\\COC5C(O)C(C)=CC(C(=O)O3)C45O)O2)C1O (stereo not drawn) [Compound 8, Milbemycin α5]")
"> 64 µg/mL"
>>> measured_value("CC[C@H](C)[C@H]1O[C@]2(CC[C@@H]1C)C[C@@H]1C[C@@H](C/C=C(\\C)[C@@H](O[C@H]3C[C@H](OC)[C@@H](O[C@H]4C[C@H](OC)[C@@H](O)[C@H](C)O4)[C@H](C)O3)[C@@H](C)/C=C/C=C3\\CO[C@@H]4[C@H](O)C(C)=C[C@@H](C(=O)O1)[C@]34O)O2 [Compound 1, Ivermectin B1a]")
"> 64 µg/mL"

----------
MEASURED_TARGET: pBEN (MF) efflux pump in S. cerevisiae YEM-2 (Candida albicans, UniProt P28873)
Sequence (P28873 whole entry): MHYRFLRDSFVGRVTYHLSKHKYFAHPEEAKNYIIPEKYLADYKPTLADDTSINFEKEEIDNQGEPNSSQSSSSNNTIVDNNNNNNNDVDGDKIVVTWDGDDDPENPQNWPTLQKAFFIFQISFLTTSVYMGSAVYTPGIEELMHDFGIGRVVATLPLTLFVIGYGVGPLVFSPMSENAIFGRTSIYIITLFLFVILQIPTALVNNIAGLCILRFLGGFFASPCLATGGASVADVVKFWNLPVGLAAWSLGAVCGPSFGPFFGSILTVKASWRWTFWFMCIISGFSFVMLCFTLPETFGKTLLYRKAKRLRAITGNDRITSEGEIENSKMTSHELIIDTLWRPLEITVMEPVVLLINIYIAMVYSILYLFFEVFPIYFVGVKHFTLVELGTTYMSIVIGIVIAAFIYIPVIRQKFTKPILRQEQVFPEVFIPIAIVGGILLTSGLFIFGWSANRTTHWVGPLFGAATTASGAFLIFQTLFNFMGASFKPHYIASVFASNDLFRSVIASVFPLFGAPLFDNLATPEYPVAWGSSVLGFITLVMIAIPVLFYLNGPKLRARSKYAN
PROCEDURE_TEXT: cell-based
Type: cell-based, C. albicans
ENDPOINT_NAME: IC50

>>> measured_value("CC[C@H]1O[C@]2(CC[C@@H]1C)C[C@@H]1C[C@@H](C/C=C(\\C)C[C@@H](C)/C=C/C=C3\\CO[C@@H]4[C@H](O)C(C)=C[C@@H](C(=O)O1)[C@]34O)O2 [Compound 7, Milbemycin α3]")
"29.5 µM"
>>> measured_value("CC1=C[C@H]2C(=O)O[C@H]3C[C@@H](C/C=C(\\C)C[C@@H](C)/C=C/C=C4\\CO[C@H]([C@@H]1O)[C@@]42O)O[C@]1(C3)C[C@H](O)[C@H](C)[C@@H](/C(C)=C/C(C)C)O1 [Compound 15, LL-F2849α (nemedectinα)]")
"> 104 µM"
>>> measured_value("CO[C@@H]1C(C)=C[C@H]2C(=O)O[C@H]3C[C@@H](C/C=C(\\C)C[C@@H](C)/C=C/C=C4\\CO[C@H]1[C@@]42O)O[C@@]1(CC[C@H](C)[C@@H](C)O1)C3 [Compound 4, Milbemycin α2]")
"> 118 µM"
>>> measured_value("C/C1=C\\C[C@@H]2C[C@@H](C[C@]3(CC[C@H](C)[C@@H](C)O3)O2)OC(=O)[C@@H]2C=C(COC(=O)c3ccc[nH]3)[C@@H](O)[C@H]3OC/C(=C\\C=C\\[C@H](C)C1)[C@]32O [Compound 11, Milbemycin α9]")
"> 100 µM"
>>> measured_value("CC1=C[C@H]2C(=O)O[C@H]3C[C@@H](C/C=C(\\C)C[C@@H](C)/C=C/C=C4\\CO[C@H]([C@@H]1O)[C@@]42O)O[C@@]1(CC[C@H](C)[C@@H](C)O1)C3 [Compound 3, Milbemycin α1]")
"30.3 µM"
>>> measured_value("CCC(CC)C(=O)OCC1=C[C@H]2C(=O)O[C@H]3C[C@@H](C/C=C(\\C)C[C@@H](C)/C=C/C=C4\\CO[C@H]([C@@H]1O)[C@@]42O)O[C@@]1(CC[C@H](C)[C@@H](C)O1)C3 [Compound 21, 4a-O-(2-ethyl)butyryl milbemycin α1]")
"> 99.6 µM"
